tgt: Recombinant KLK2 (Homo sapiens, UniProt P20151)
Construct: made in house; host or cells: baculovirus-insect cell line system
Sequence (P20151 25-261): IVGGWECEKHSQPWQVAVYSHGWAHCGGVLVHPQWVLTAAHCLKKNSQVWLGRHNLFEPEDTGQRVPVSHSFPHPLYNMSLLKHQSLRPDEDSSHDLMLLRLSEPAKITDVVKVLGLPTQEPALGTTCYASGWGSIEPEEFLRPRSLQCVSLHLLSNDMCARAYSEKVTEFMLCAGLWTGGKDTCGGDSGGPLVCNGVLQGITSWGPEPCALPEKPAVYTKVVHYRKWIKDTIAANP
assay-remarks: Hydrolysis of FRET peptides by recombinant KLK2 (kinetic parameters)
Type: biochemical
measurement-setup: pH 8.0, 20 mM Tris–HCl, 1 M sodium citrate, 37 °C, KLK2 1.6 nM; three enzymatic reactions, standard errors 5% or less
Description: Obtained from a baculovirus-insect cell line system, purified, and activated as previously reported,[14] MUGB (4-methylumbelliferyl p-guanidino benzoate hydrochloride) was used for the spectrofluorimetric determination of molar concentrations of active KLK2.[15] KLK3 was obtained and assayed as previously reported.[3] All of the FRET peptides were obtained by solid-phase peptide synthesis. […]
Non-standard residues stand in square brackets, D forms with d. No end group written: not given here. *: point of attachment. EDDnp = O=[N+]([O-])c1ccc(NCCN*)c([N+](=O)[O-])c1; 2Abz = Nc1ccccc1C(=O)O
Below, each entry is listed with its recorded Km.
Answer with a number only, understood to be in µM.

In: Entry Abz-KXRSSKQ-EDDnp, X = T: FRET peptide, S2 series, X = T (Abz-KTRSSKQ-EDDnp) , system Recombinant KLK2 (Homo sapiens, UniProt P20151): what Km was measured?
Out: 10.5

In: API: value(readout= Km, system= Recombinant KLK2 (Homo sapiens, UniProt P20151), query= Abz-KLRSXKQ-EDDnp, X = E: FRET peptide, S2’ series, X = E ([2Abz]KLRSEKQ-EDDnp) )
Out: 8

In: Enter reported Km observed with Recombinant KLK2 (Homo sapiens, UniProt P20151) for Abz-KXRSSKQ-EDDnp, X = G: FRET peptide, S2 series, X = G ([2Abz]KGRSSKQ-EDDnp)
Out: 12.4

In: API: value(readout= Km, system= Recombinant KLK2 (Homo sapiens, UniProt P20151), query= Abz-XLRSSKQ-EDDnp, X = H: FRET peptide, S3 series, X = H (N-terminal Abz, C-terminal EDDnp; X = H) )
Out: 4.2

In: Given the entry Abz-XLRSSKQ-EDDnp, X = R: FRET peptide, S3 series, X = R (Abz-RLRSSKQ-EDDnp) , what Km was observed with Recombinant KLK2 (Homo sapiens, UniProt P20151)?
Out: 3.9

In: Query the reported Km for Recombinant KLK2 (Homo sapiens, UniProt P20151); item: Abz-KXRSSKQ-EDDnp, X = Q: FRET peptide, S2 series, X = Q [Abz-KXRSSKQ-EDDnp, X = Q] (Abz-KQRSSKQ-EDDnp)
Out: 8.3

In: Entry Abz-KLRXSKQ-EDDnp, X = N: FRET peptide, S1’ series, X = N ([2Abz]KLRNSKQ-EDDnp) , system Recombinant KLK2 (Homo sapiens, UniProt P20151): what Km was measured?
Out: 8.6
